In this section we review reported ELISA FLT3 (absorbance) values for a set of binders.
biological target: T1, human FLT3 protein (human, UniProt P36888 27-541, limits assumed); assay: colorimetric ELISA, periplasmic extract
T1 construct: protein coated in the screening ELISA; also called ELISA FLT3
Give the number first and the unit second.

Sample answers from the record:
FLL39 (VHH, llama anti-FLT3 variable domain; E. coli periplasmic extract) VHH: QVQLQESGGGLVQAGGSLRLSCAASGLTSSTYRMAWFRQAPGKEREFAAGISYSADSGGSTNYADSVKGRFTISRDNAKNTVYLQMSSLKPEDTAVYYCAAGRYSGTYNSPYSSSYVYWGQGTQVTVSS    1.9 absorbance
FLL83 (VHH, llama anti-FLT3 variable domain; E. coli periplasmic extract) VHH: QVQLQESGGGLVQAGGSLRLSCAVSGRTFSGFGTGWFRQAPGKEREFVAAISWSGGTTHYADSVKGRFTISRDNAENTVYLEMNSLKPEDTAVYICAGQVSRAYDSNWYSRDDYWGQGTQVTVSS    3.8 absorbance
FLL822 (VHH, llama anti-FLT3 variable domain; E. coli periplasmic extract) VHH: QVQLQESGGGSVQAGGSLRLSCTASGRTFTDYTMGWFRQAPGKEREFMLGISSNGYRRYYTGSMKDRFTISRDNVKKTVYLQMNDLKPEDTAVYYCAASEDHGAPRYDYWGQGTQVTVSS    4 absorbance

query: Reported ELISA FLT3 (absorbance) for FLL21 (VHH, llama anti-FLT3 variable domain; E. coli periplasmic extract) VHH: QVQLQESGGGLVQPGGSLTLSCAASGSTFSRNYIDWYRQAPGKQREWVAQITSGGNTHYEPSLKGRFTISRDNAKNTAYLQMNSLKPEDTAVYYCRILDYWGQGTQVTVSS : what is it?
result: 3.3 absorbance

query: Reported ELISA FLT3 (absorbance) for FLL79 (VHH, llama anti-FLT3 variable domain; E. coli periplasmic extract) VHH: QVQLQESGGGLVQAGGSLRLSCSASGSTFSRNYIDWYRQAPGKQREWVAQITSGGNTHYEPSLKGRFTISRDNAKNTAYLQMNSLKPEDTAVYYCRILDYWGQGTQVTVSS : what is it?
result: 0.6 absorbance

query: Reported ELISA FLT3 (absorbance) for FLL8 (VHH, llama anti-FLT3 variable domain; E. coli periplasmic extract) VHH: QVQLQESGGGLVQVGGSLMVSCAASGGTFSSYATGWFRQVPGKEREFIAGISRNSGRTYYAESVKGRFTISRDNAKNTVYLQMNTLKPDDTAVYYCAAARYFTRDVVYTSGDDYDYWGQGTQVTVSS : what is it?
result: 3.3 absorbance

query: Reported ELISA FLT3 (absorbance) for FLL141 (VHH, llama anti-FLT3 variable domain; E. coli periplasmic extract) VHH: QVQLQESGGGLVQAGGSLRLSCAASGRTFSSYAMGWFRQAPGMEREFVAAISWSGYSTYYADSVKGRFTISRDDAKNTVYLQMDSLKPEDTAVYYCAAGGSTRVVVTTTPVVKYWGQGTQVTVSS : what is it?
result: 4 absorbance

query: Reported ELISA FLT3 (absorbance) for FLL4 (VHH, llama anti-FLT3 variable domain; E. coli periplasmic extract) VHH: QVQLQESGGGLVQAGGSLRLSCAASERTFSSYTMGWFRQAPGKEREFVAAMSWSGGSTYYADSVKGRFTISRDNAKNTVYLQMDSLKPEDTAVYYCAAGGSTRVVVTTTPVVKYWGQGTQVTVSS : what is it?
result: 3.7 absorbance

query: Reported ELISA FLT3 (absorbance) for FLL116 (VHH, llama anti-FLT3 variable domain; E. coli periplasmic extract) VHH: QVQLQESGGGLVQAGGSLRLSCAASGVTFSINYIDWYRQAPGKQREWVAQITRDSNSFYADSVKGRFAISRDNAKNTVYLQMNSLKPEDTAVYYCRVLSYWGQGTQVTVSS : what is it?
result: 1.1 absorbance
